test system: Pieris rapae; assay: Insecticidal activity against fifth-instar larvae of Pieris rapae fed on compound treated cabbage leaf assessed as mortality at 250 ppm dipped for 3 secs measured after 10 days (reference value: 6.67 1.56%); format: functional
Measurement name: mortality (%)
Write it as a number; the unit % goes unstated.

The value of mortality recorded for COc1cc([C@@H]2c3cc4c(cc3[C@@H](NC(=O)c3ccc(I)cc3)[C@H]3COC(=O)[C@H]23)OCO4)cc(OC)c1OC when tested on Pieris rapae reads 48.28

The reported mortality value, Pieris rapae, for COc1cc([C@@H]2c3cc4c(cc3[C@@H](NC(=O)c3ccc(Cl)cc3)[C@H]3COC(=O)[C@H]23)OCO4)cc(OC)c1OC reads 72.08

I looked up COc1cc([C@@H]2c3cc4c(cc3[C@@H](NC(=O)c3ccc(Br)cc3)[C@H]3COC(=O)[C@H]23)OCO4)cc(OC)c1OC and its mortality for Pieris rapae was 51.85

Per the reported Pieris rapae data, COc1cc([C@@H]2c3cc4c(cc3[C@@H](NC(=O)c3ccccc3F)[C@H]3COC(=O)[C@H]23)OCO4)cc(OC)c1OC has mortality of 46.41

Considering COc1cc([C@@H]2c3cc4c(cc3[C@@H](NC(=O)c3cccc(Cl)c3)[C@H]3COC(=O)[C@H]23)OCO4)cc(OC)c1OC , its mortality with Pieris rapae was recorded as 54.25

Field mortality (system: Pieris rapae) for entry COc1cc([C@@H]2c3cc4c(cc3[C@@H](NC(=O)c3cccc(F)c3)[C@H]3COC(=O)[C@H]23)OCO4)cc(OC)c1OC = 49.46

Summary line: COc1cc([C@@H]2c3cc4c(cc3[C@@H](NC(=O)c3ccccc3I)[C@H]3COC(=O)[C@H]23)OCO4)cc(OC)c1OC , Pieris rapae, reported mortality = 48.36

Entry COc1cc([C@@H]2c3cc4c(cc3[C@@H](NC(=O)c3cccc(I)c3)[C@H]3COC(=O)[C@H]23)OCO4)cc(OC)c1OC , tested on Pieris rapae, has a reported mortality of 40.71

The recorded mortality with Pieris rapae for COc1cc([C@@H]2c3cc4c(cc3[C@H](O)[C@H]3COC(=O)[C@H]23)OCO4)cc(OC)c1OC was 53.36

###

tested on: Pieris rapae; assay: Insecticidal activity against fifth-instar larvae of Pieris rapae fed on compound treated cabbage leaf assessed as paralysis at 250 ppm dipped for 3 secs measured after 48 hr relative to control; type: functional, organism-based
Active and inactive are the calls of the source. The calls are words filed in the database; no cut-off is given here.
Measurement name: Activity

# Compound, Data value
records = [
    ("COc1cc([C@@H]2c3cc4c(cc3[C@@H](NC(=O)c3ccccc3Br)[C@H]3COC(=O)[C@H]23)OCO4)cc(OC)c1OC", "Active"),
    ("COc1cc([C@@H]2c3cc4c(cc3[C@@H](N)[C@H]3COC(=O)[C@H]23)OCO4)cc(OC)c1OC [4BETA-NH2-PODOPHYLLOTOXIN]", "Active"),
    ("COc1cc([C@@H]2c3cc4c(cc3[C@@H](NC(=O)c3ccccc3Cl)[C@H]3COC(=O)[C@H]23)OCO4)cc(OC)c1OC", "Active"),
]

###

mortality by entry:
system: Pieris rapae; assay: Insecticidal activity against fifth-instar larvae of Pieris rapae fed on compound treated cabbage leaf assessed as mortality at 250 ppm dipped for 3 secs measured after 10 days (reference value: 6.67 1.56%); type: functional
Answer with a number only, understood to be in %.

Worked cases, answers included:
# Substance smiles, mortality (%)
data = [
    ("COc1cc([C@@H]2c3cc4c(cc3[C@@H](NC(=O)c3ccc(F)cc3)[C@H]3COC(=O)[C@H]23)OCO4)cc(OC)c1OC", 44.74),
    ("COc1cc([C@@H]2c3cc4c(cc3[C@@H](NC(=O)c3cccc(Br)c3)[C@H]3COC(=O)[C@H]23)OCO4)cc(OC)c1OC", 69.23),
    ("COc1cc([C@@H]2c3cc4c(cc3[C@@H](NC(=O)c3ccccc3Cl)[C@H]3COC(=O)[C@H]23)OCO4)cc(OC)c1OC", 36.36),
    ("COc1cc([C@@H]2c3cc4c(cc3[C@@H](N)[C@H]3COC(=O)[C@H]23)OCO4)cc(OC)c1OC", 36.43),
]

Proceed to the following item.
Lab note: COc1cc([C@@H]2c3cc4c(cc3[C@@H](NC(=O)c3ccccc3Br)[C@H]3COC(=O)[C@H]23)OCO4)cc(OC)c1OC gave mortality of 44.78
